Assay: in vitro
Settings: human, hela cells, % viability
Overview of recorded viability at 28.5 h, 10 µM for various molecules
Write the answer as a number in %, unit excluded.

1. O=[N+]([O-])c1cc(F)ccc1Oc1cccc2c1CCCC2	93.5

Ask: Which viability at 28.5 h, 10 µM reading was recorded for the molecule `COC(=O)c1ccc(CN2CCCC2)cc1` ?
Result: 106

Ask: How about this molecule: `CCN1CCN(Cc2c(O)ccc3c(=O)c(Oc4ccccc4Cl)c(C(F)(F)F)oc23)CC1`
Result: 107

Ask: How about this molecule: `c1cncc(-c2cncc(NCc3ccc4c(c3)OCO4)n2)c1`
Result: 94.6
